All values here come from the supplement of paper PMC12667976.

B1: library; numbered along this chain (parent)
chain: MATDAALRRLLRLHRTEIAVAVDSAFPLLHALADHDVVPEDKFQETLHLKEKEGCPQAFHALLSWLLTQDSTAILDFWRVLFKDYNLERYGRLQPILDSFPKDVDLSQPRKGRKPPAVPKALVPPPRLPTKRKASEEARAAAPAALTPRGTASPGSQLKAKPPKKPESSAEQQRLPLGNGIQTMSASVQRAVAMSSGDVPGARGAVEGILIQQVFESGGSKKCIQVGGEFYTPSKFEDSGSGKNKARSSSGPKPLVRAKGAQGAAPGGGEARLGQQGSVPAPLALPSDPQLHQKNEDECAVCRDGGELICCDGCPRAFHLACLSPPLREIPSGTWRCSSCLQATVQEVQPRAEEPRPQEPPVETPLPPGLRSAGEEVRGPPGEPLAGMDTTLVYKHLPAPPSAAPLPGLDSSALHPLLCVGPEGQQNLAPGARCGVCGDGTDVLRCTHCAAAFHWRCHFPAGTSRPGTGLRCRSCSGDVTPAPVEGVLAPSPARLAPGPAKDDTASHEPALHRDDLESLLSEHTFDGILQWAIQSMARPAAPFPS

variants of: B1; experiment: AIRE transcriptional activation functional score (insulin promoter-GFP; nonsense median 0, synonymous median 1) (normalised score); higher = higher AIRE activity (more reporter activation); conditions: with insulin promoter-GFP reporter in HEK293
Param threshold (0.9) applies to AIRE transcriptional activation functional score; output Y when value >= threshold, N when value < threshold.

INPUT: hey, is AIRE transcriptional activation functional score for this one >= 0.9? E88V
OUTPUT: N

INPUT: Answer whether AIRE transcriptional activation functional score of C310Y is greater than or equal to 0.9.
OUTPUT: Y

INPUT: In plain terms: is recorded AIRE transcriptional activation functional score at least 0.9 for E485R ?
OUTPUT: N

INPUT: Can V279L be said to have AIRE transcriptional activation functional score at or above 0.9?
OUTPUT: Y

INPUT: Hi team, for G268E , is the recorded AIRE transcriptional activation functional score at or above 0.9?
OUTPUT: Y

INPUT: Evaluate A284F : AIRE transcriptional activation functional score at minimum 0.9?
OUTPUT: Y

INPUT: Reported AIRE transcriptional activation functional score at or above 0.9? P289H
OUTPUT: Y

INPUT: Kindly determine if AIRE transcriptional activation functional score recorded for A33N is above or exactly 0.9.
OUTPUT: Y

INPUT: hey, is AIRE transcriptional activation functional score for this one >= 0.9? G462I
OUTPUT: N

INPUT: Quick check: does L10F have AIRE transcriptional activation functional score greater than or equal to 0.9?
OUTPUT: N

INPUT: Please tell me: is the variant E363C at or over 0.9 in terms of AIRE transcriptional activation functional score?
OUTPUT: Y

INPUT: Could you verify whether the entry P499C shows AIRE transcriptional activation functional score of no less than 0.9?
OUTPUT: N

INPUT: Test whether the variant K245R records AIRE transcriptional activation functional score of 0.9 or higher.
OUTPUT: N

INPUT: API: above_or_equal(metric=AIRE transcriptional activation functional score, cutoff=0.9) for item A117K
OUTPUT: N

INPUT: // inclusive: AIRE transcriptional activation functional score at least 0.9? input: C55N
OUTPUT: N

INPUT: In plain terms: is recorded AIRE transcriptional activation functional score at least 0.9 for E363N ?
OUTPUT: Y

INPUT: For this variant, is measured AIRE transcriptional activation functional score 0.9 or higher? K253E
OUTPUT: N

INPUT: Can D84C be said to have AIRE transcriptional activation functional score at or above 0.9?
OUTPUT: N

INPUT: Item P176G with AIRE transcriptional activation functional score of 0.9 or above?
OUTPUT: N

INPUT: Form field: AIRE transcriptional activation functional score at least 0.9? Entry: G369Y
OUTPUT: N

INPUT: Could you tell me if the measured AIRE transcriptional activation functional score of G462S reaches 0.9 or more?
OUTPUT: Y
